# methodNotes: protein stability index of a GFP-peptide fusion (yeast GPS) (PSI 1-4); higher = more stable; sorted into four equal gates, so the index is relative within each strain
# measurementSetup: doa10∆
Quick reference: protein stability index of the listed items.

{"columns": ["macromoleculeSequence", "protein stability index"],
 "data": [
  ["RNTMMIQCQIDKLYIHF [RGR1]", 1.98],
  ["FRALGIIPDGEILEHIC [RPB2]", 2.43],
  ["GGESMEGPKKCIQVNCL [SNM1]", 1.92],
  ["HEIITVGPHFKQANNFL [RPL7A]", 2.45],
  ["SRDKTIKVWTIKGQCLA [ASC1]", 1.63],
  ["KVVIPNLLCYYNLRSLN [RPN3]", 2.44],
  ["SSISWKNIAQCLSDYTK [YJL039C/NUP192]", 2.05],
  ["NFGNNGAGGLNPFTSAT [YOR098C/NUP1]", 2.89],
  ["GEIVSINQINEAHPTKV [RPL20A]", 3.17],
  ["MSLSNKTVKELRQLLKE [RRI1]", 1.95],
  ["KIRRHPNIMLIFGSGFG [FAS1]", 1.9],
  ["FDENIARDIISHNFQNA [PCI8]", 2.74],
  ["LRLKLFLYEILSSLKSF [SRB8]", 1.53],
  ["TSPLYMDPGAPLPVETP [SSN2]", 3.09],
  ["STRKTPNGEGSKTWETY [RPS20]", 3.19],
  ["NSASNNGNLTSNQLISN [SWI1]", 1.96],
  ["SGWGAVVYIIKKDEVVK [PUP3]", 3.25],
  ["NETSEQLVPIRLEFDQD [SNF5]", 3.19],
  ["PFVLAENMWPFSYQEVE [CDC53]", 1.6],
  ["IRSSRSRGIVIGSGAMS [RPP1]", 2.63],
  ["PFSEGVTFSVMPPKKSW [SMC4]", 2.48],
  ["LFSKNRNEVLESMDFLV [YCS4]", 2.08],
  ["GKNVINRERFISKLFLR [SMD2]", 2.85],
  ["HLRVRVHPFHVLRINKM [RPL10]", 1.12],
  ["SAIRQVFERFKTKILEV [IRR1]", 1.87],
  ["MGDNSQLDFTEFDEQYG [SNF2]", 3.31],
  ["KASKEIKKVICGAWEPA [SIR3]", 2.15],
  ["QLKIQNRQAAASVVPSA [RPL12A]", 1.82],
  ["YEDSGSTYKHDRGIANI [SRB4]", 3.29],
  ["QGTGKKTASLGNSKDDL [ISW2]", 3.02],
  ["HLEALQPLFSTVPEYLK [PGD1]", 1.51],
  ["TSGKVELPKKLLNLPPF [SRB8]", 2.57],
  ["RKGGPATAEKLPNIYPS [RPT2]", 2.89],
  ["LYDRPLKPDLNKITNQG [NAS6]", 3.22],
  ["SQKHNGRILKWLWPLCR [CDC53]", 1.52],
  ["EKLTSKSLDEQLLLLSD [LRP1]", 3.16],
  ["YRFYEYIYSQETKSWIN [MED1]", 1.7],
  ["SINVHSNNITSGLNRAI [RET1]", 3.19],
  ["KGPIIISKNPSNGIFYG [SIR2]", 2.74],
  ["KQLEKRDYQRINKNSKI [POP4]", 2.06],
  ["TNVEDPLAKKQTVRLIK [SIR2]", 2.82],
  ["NNRWAENNYKKRLLGTA [RPS23A]", 2.37],
  ["QWFLQYQNQFVEFCRNI [YML103C/NUP188]", 2.48],
  ["YMDKAKQYDNRITKSNE [LRP1]", 3.08]
]}

These measurements were taken from the supplement of paper PMC9732359.
